- TESTED_ON: full-length SARM1 (FL-SARM1) (Homo sapiens, UniProt Q6SZW1)
- RUN_DESCRIPTION: FL-SARM1 cellular lysate assay (NAD/NADH-Glo readout of remaining NAD+)
- CONDITIONS: Activity, SARM1 cellular lysate from transfected HEK293T cells, NAD+ and NMN, 11 point curve
pIC50: −log10 of the molar value.
Answer each item with its documented pIC50.

Notebook: Cc1ccc(NC(=O)OC2CCC2)cc1-c1cncc(F)c1 , pIC50 read as < 5.00

The reported value for Cc1ccc(NC(=O)N2C3C[C@H]2C[C@@]2(C3)CC2(F)F)cc1-c1cncc(F)c1 in terms of pIC50 is 6.00 to 10.00

GET /value?item= Cc1ccc(NC(=O)N2C3CCCC2C3)cc1-c1cccnc1 &field=pIC50 returns 6.00 to 10.00

What the record says about C[C@@H]1CC2C[C@@H](C1)N2C(=O)Nc1ccc(C#N)c(-c2cncc(F)c2)c1 (single isomer, unassigned) : pIC50 is 6.00 to 10.00

Memo: Cc1ccc(NC(=O)N2C3C[C@@H]2C[C@@](C)(C#N)C3)cc1-c1cncc(F)c1 (stereo in doubt) , reported pIC50: 6.00 to 10.00

Data point: Cc1nnc([C@]23C[C@H](C)C[C@H](C2)N3C(=O)Nc2cc(-c3cncc(F)c3)c(C)cc2F)o1 (single isomer, unassigned) [Example 124] ; pIC50 = 5.00 to 6.00

Entry CCc1ccc(NC(=O)N2[C@@H]3C[C@@H](C)C[C@H]2C3)cc1-c1cncc(F)c1 ; pIC50 = 6.00 to 10.00

# pIC50 (compound: C[C@@H]1CC2C[C@H](C1)N2C(=O)Nc1ccc(C(F)(F)F)c(-c2cncc(F)c2)c1 (single isomer, unassigned) ) is 6.00 to 10.00

# pIC50 of O=C(Nc1cccc(-c2cncc(F)c2)c1)N1C2CCCC1C2 = 5.00 to 6.00

Entry O=C(Nc1ccc(F)c(-c2cncc(F)c2)c1)N1C2CCCC1C2 — recorded pIC50 = 5.00 to 6.00

Reported pIC50 of COc1ccc(-c2cc(NC(=O)N3C4CCCC3C4)ccc2C)cn1 : 6.00 to 10.00

Field pIC50 (entry C[C@@H]1CC2C[C@H](C1)N2C(=O)Nc1ccc(C(F)F)c(-c2cncc(F)c2)c1 ) reads 6.00 to 10.00

What the record says about C[C@@H]1CC2C[C@@H](C1)N2C(=O)Nc1ccc(C(F)(F)F)c(-c2cncc(F)c2)c1 (single isomer, unassigned) : pIC50 is 6.00 to 10.00

// pIC50 value for Cc1nnc([C@]23C[C@H](C)C[C@H](C2)N3C(=O)Nc2ccc(C(F)(F)F)c(-c3cncc(F)c3)c2)o1 (single isomer, unassigned) [Example 120] : < 5.00

pIC50 for Cc1nnc([C@]23C[C@H](C)C[C@H](C2)N3C(=O)Nc2cc(-c3cncc(F)c3)c(C(F)(F)F)cc2F)o1 (single isomer, unassigned) is 6.00 to 10.00

----------
- TESTED_ON: full-length SARM1 (FL-SARM1) (Homo sapiens)
- Sequence (Q6SZW1 28-724): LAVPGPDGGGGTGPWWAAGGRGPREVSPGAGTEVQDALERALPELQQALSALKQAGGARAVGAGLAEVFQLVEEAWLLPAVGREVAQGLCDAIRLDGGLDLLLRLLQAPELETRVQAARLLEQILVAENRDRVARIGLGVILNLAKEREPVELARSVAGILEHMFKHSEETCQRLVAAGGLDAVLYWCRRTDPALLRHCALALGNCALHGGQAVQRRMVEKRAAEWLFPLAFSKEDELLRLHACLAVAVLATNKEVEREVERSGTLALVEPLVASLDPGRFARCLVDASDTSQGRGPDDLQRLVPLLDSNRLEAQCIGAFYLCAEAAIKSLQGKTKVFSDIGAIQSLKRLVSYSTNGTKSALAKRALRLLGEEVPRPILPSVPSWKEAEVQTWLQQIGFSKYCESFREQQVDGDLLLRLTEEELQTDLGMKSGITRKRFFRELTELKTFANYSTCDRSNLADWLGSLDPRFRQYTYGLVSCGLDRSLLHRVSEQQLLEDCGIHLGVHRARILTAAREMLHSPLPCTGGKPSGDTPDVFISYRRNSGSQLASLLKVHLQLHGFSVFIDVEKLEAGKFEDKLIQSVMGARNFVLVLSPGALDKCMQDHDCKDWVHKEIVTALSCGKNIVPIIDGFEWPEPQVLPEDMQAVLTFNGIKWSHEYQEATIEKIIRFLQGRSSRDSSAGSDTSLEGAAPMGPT
- RUN_DESCRIPTION: FL-SARM1 cellular lysate assay (NAD/NADH-Glo readout of remaining NAD+)
- CONDITIONS: Activity (μM), SARM1 cellular lysate from transfected HEK293T cells, NAD+ and NMN, 11 point curve
Task for the reader: assign each of the following compounds its reported log10 of IC50.
Recorded IC50 (log10, µM)

In plain terms, Cc1nnc([C@]23C[C@H](C)C[C@H](C2)N3C(=O)Nc2cc(-c3cncc(F)c3)c(C(F)(F)F)cc2F)o1 (single isomer, unassigned) has a documented log10 of IC50 of -1.52

log10 of IC50 recorded for this compound, Cc1ccc(NC(=O)[C@@H]2CC2(F)F)cc1-c1cncc(F)c1 , is 0.91

Noted for Cc1ccc(NC(=O)N2C3CC2CC(F)(F)C3)cc1-c1cncc(F)c1 : its log10 of IC50 reads -0.30

Entry Cc1ccc(NC(=O)N2C3CCCC2(C#N)C3)cc1-c1cncc(F)c1 (centres unmarked) , log10 of IC50 reported as -1.15

Recorded log10 of IC50 (compound Cc1ccc(NC(=O)N2C3CCCC2C3)cc1-c1cncc(C#N)c1 ): -1.00

Sure, the documented log10 of IC50 for COC(=O)[C@H]1C[C@@H]2C[C@H](C1)N2C(=O)Nc1ccc(C)c(-c2cncc(F)c2)c1 (single isomer, unassigned) is 0.57

Entry Cc1ccc(NC(=O)N2C3C[C@H](C#N)C[C@@H]2C3)cc1-c1cncc(F)c1 ; log10 of IC50 = -0.40

log10 of IC50 reported for this compound Cc1ccc(NC(=O)N2C[C@@H]3C[C@H]2C[C@@H]3C#N)cc1-c1cncc(F)c1 (relative stereo) : 0.52

// recorded log10 of IC50 for Cc1ccc(NC(=O)N2CCOc3cccc(C#N)c3C2)cc1-c1cncc(F)c1 : 0.75

// recorded log10 of IC50 for Cc1ccc(NC(=O)N2C3CCCC2(C(=O)N2CCCC2)C3)cc1-c1cncc(F)c1 (centres unmarked) : 0.64

log10 of IC50 recorded for this compound, Cc1ccc(NC(=O)N2C[C@@H](C)CC[C@H]2C)cc1-c1cncc(F)c1 (racemic) , is 0.41

log10 of IC50 in this record for Cc1ccc(NC(=O)N2C[C@@H]3CC2C[C@H]3C#N)cc1-c1cncc(F)c1 : 1.61

What the record says about Cc1ccc(NC(=O)CC2CCC2)cc1-c1cccnc1 : log10 of IC50 is 0.63

Reported log10 of IC50 ( Cc1ccc(-c2cc(NC(=O)N3C4CCCC3C4)ccc2C)cn1 ) = -0.52

Note to self: log10 of IC50 recorded for Cc1ccc(NC(=O)N2CCCCC2C)cc1-c1cncc(F)c1 (racemic) was 0.28

Lookup result for Cc1ccc(NC(=O)N2C3C[C@H]2C[C@H](n2cccn2)C3)cc1-c1cncc(F)c1 ; measured log10 of IC50: 0.82

Looking up C[C@@H]1CC2C[C@H](C1)N2C(=O)Nc1ccc(C2CC2)c(-c2cncc(F)c2)c1 (single isomer, unassigned) , I see its log10 of IC50 listed as -0.70

log10 of IC50 reading for Cc1ccc(NC(=O)N2C3CCCC2C3)cc1-c1cccnc1C#N : -0.10

For this compound ( Cc1ncc(-c2cc(NC(=O)[C@@H]3CC3(F)F)ccc2C)cn1 ), measured log10 of IC50 is 1.31

log10 of IC50 in this record for Cc1ccc(NC(=O)N2C3C[C@@H](C(F)F)C[C@@H]2C3)cc1-c1cncc(F)c1 : -1.00

Record COC(=O)[C@H]1CCC2C[C@@H]1N2C(=O)Nc1ccc(C)c(-c2cncc(F)c2)c1 , field log10 of IC50: 1.32

Entry Cc1ccc(NC(=O)[C@H]2C[C@H](C3CC3)C2)cc1-c1cncc(F)c1 , log10 of IC50 reported as 0.72

Reported log10 of IC50 ( Cc1nnc(C23CCCC(C2)N3C(=O)Nc2ccc(C)c(-c3cncc(F)c3)c2)o1 (centres unmarked) ) = -0.70

Per the records, this compound ( CO[C@H]1CC2C[C@H](C1)N2C(=O)Nc1cc(-c2cncc(F)c2)c(C)cc1F ) has log10 of IC50 equal to 0.40

For record Cc1ccc(NC(=O)N2C3C[C@@H]2C[C@H](n2cccn2)C3)cc1-c1cncc(F)c1 the listed log10 of IC50 is 1.15

log10 of IC50 recorded for this compound, C[C@H]1CC2C[C@@H](C1)N2C(=O)Nc1ccc(Cl)c(-c2cncc(F)c2)c1 (single isomer, unassigned) , is -1.15

Lab note: Cc1nnc([C@]23C[C@H](C)C[C@H](C2)N3C(=O)Nc2cc(-c3cncc(F)c3)c(Cl)cc2F)o1 (single isomer, unassigned) [Example 132] gave log10 of IC50 of -1.30

Form: compound = Cc1ccncc1-c1cc(NC(=O)N2C3CCCC2C3)ccc1C ; log10 of IC50 = -0.40

log10 of IC50 in this record for C[C@@H]1CC2C[C@H](C1)N2C(=O)Nc1ccc(C(F)(F)F)c(-c2cncc(F)c2)c1 (single isomer, unassigned) : -1.22

For record C[C@@H]1CC2C[C@@H](C1)N2C(=O)Nc1ccc(C2CC2)c(-c2cncc(F)c2)c1 (single isomer, unassigned) the listed log10 of IC50 is -0.70

Lab book: log10 of IC50 of Cc1ccc(NC(=O)[C@H]2C[C@](C#N)(C3CC3)C2)cc1-c1cncc(F)c1 noted as 1.59

The recorded log10 of IC50 for entry C[C@@H]1CC2C[C@H](C1)N2C(=O)Nc1ccc(C(F)F)c(-c2cncc(F)c2)c1 equals -1.22
